The measurements presented in this section are drawn from paper PMC10900215.

test.target: ternary complex CRBN/PROTAC/METTL3–14 (Homo sapiens, UniProt Q86U44+Q96SW2)
Construct: methyltransferase domains (MTD) of METTL3 (residues 354–580); His6 (N, cleaved yes); made in house; host or cells: METTL3-MTD/METTL14-MTD: baculovirus/Sf9; CRBN-TBD: E. coli Rosetta (DE3), co-expressed with BirA
Sequence (Q86U44 354-580): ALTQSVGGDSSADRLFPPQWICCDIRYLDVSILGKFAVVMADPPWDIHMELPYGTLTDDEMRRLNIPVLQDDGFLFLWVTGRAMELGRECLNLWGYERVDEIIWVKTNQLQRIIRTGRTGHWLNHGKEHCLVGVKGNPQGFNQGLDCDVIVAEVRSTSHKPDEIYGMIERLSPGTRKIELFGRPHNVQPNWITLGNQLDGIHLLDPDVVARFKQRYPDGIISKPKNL
Sequence (Q9HCE5 107-395 partner limits assumed): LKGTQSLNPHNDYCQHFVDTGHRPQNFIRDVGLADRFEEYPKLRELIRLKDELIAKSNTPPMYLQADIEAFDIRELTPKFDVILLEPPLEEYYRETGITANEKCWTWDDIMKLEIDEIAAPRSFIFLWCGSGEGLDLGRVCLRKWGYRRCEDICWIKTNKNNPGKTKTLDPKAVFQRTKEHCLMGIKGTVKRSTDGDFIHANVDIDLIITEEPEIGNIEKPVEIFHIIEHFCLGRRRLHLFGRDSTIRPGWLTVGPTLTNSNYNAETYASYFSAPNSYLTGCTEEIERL
Sequence (Q96SW2 318-442): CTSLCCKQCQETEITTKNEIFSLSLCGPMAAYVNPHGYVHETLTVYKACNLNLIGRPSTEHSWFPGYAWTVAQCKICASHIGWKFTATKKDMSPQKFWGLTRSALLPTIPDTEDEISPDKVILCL
procedure.text: FRET-based ternary complex formation assay (TCFA)
Assay type: binding
condition.description: Hook curve amplitude, fraction of the maximum of compound 16
property.name: TCFA amplitude (mean ± SEM)
One number for each entry.

{"molecule": "CC1(C)CCN(Cc2cc(F)c(N3CC(=O)NC4(CCN(c5cc(NCc6ccc(N7CCN(c8cccc9c8C(=O)N(C8CCC(=O)NC8=O)C9=O)CC7)cc6)ncn5)CC4)C3)cc2F)CC1 (centres unmarked)", "property.name": "TCFA amplitude (mean ± SEM)", "value": 0.2}
{"molecule": "CC1(C)CCN(Cc2ccc(N3CC(=O)NC4(CCN(c5cc(NCCCNC(=O)CCCCCCCCCCn6cc(CNc7cccc8c7C(=O)N(C7CCC(=O)NC7=O)C8=O)nn6)ncn5)CC4)C3)cc2)CC1 (centres unmarked)", "property.name": "TCFA amplitude (mean ± SEM)", "value": 0.6}
{"molecule": "CC1(C)CCN(Cc2cc(F)c(N3CC(=O)NC4(CCN(c5cc(NCC6CCN(C(=O)CCCCCNc7cccc8c7C(=O)N(C7CCC(=O)NC7=O)C8=O)CC6)ncn5)CC4)C3)cc2F)CC1 (centres unmarked)", "property.name": "TCFA amplitude (mean ± SEM)", "value": 1.2}
{"molecule": "CC1(C)CCN(Cc2cc(F)c(N3CC(=O)NC4(CCN(c5cc(NCc6cccc(CNC(=O)CCn7cc(CNc8cccc9c8C(=O)N(C8CCC(=O)NC8=O)C9=O)nn7)c6)ncn5)CC4)C3)cc2F)CC1 (centres unmarked)", "property.name": "TCFA amplitude (mean ± SEM)", "value": 0.6}

// sample CC1(C)CCN(Cc2cc(F)c(N3CC(=O)NC4(CCN(c5cc(NCc6cccc(CNC(=O)CCCCCCCCn7cc(CNc8cccc9c8C(=O)N(C8CCC(=O)NC8=O)C9=O)nn7)c6)ncn5)CC4)C3)cc2F)CC1 (centres unmarked) , its TCFA amplitude (mean ± SEM) was 0.9

====

procedure.text: Cell viability assay (CellTiter-Glo) on MOLM-13
Assay type: cell-based
condition.description: human, MOLM-13 cells, 1.25 µM, average of two biological replicates
property.name: viability at 72 h, 1.25 µM (%)
Give bare numbers, in %.

In the examples that follow, each entry is paired with its recorded viability at 72 h, 1.25 µM.
{"compound": "CC1(C)CCN(Cc2cc(F)c(N3CC(=O)NC4(CCN(c5cc(NCCN6CCN(C(=O)CCCCCCCNc7cccc8c7C(=O)N(C7CCC(=O)NC7=O)C8=O)CC6)ncn5)CC4)C3)cc2F)CC1 (stereo not drawn)", "unit.of.measure": "%", "viability at 72 h, 1.25 µM": 88.3}
{"compound": "CC1(C)CCN(Cc2cc(F)c(N3CC(=O)NC4(CCN(c5cc(NCCN6CCN(C(=O)CCCNc7cccc8c7C(=O)N(C7CCC(=O)NC7=O)C8=O)CC6)ncn5)CC4)C3)cc2F)CC1 (stereo not drawn)", "unit.of.measure": "%", "viability at 72 h, 1.25 µM": 93.5}
{"compound": "CC1(C)CCN(Cc2cc(F)c(N3CC(=O)NC4(CCN(c5cc(NCc6cccc(CNC(=O)CCn7cc(CNc8cccc9c8C(=O)N(C8CCC(=O)NC8=O)C9=O)nn7)c6)ncn5)CC4)C3)cc2F)CC1 (stereo not drawn)", "unit.of.measure": "%", "viability at 72 h, 1.25 µM": 105}
{"compound": "CC1(C)CCN(Cc2cc(F)c(N3CC(=O)NC4(CCN(c5cc(NCC6CCN(C(=O)CCCNc7ccc8c(c7)C(=O)N(C7CCC(=O)NC7=O)C8=O)CC6)ncn5)CC4)C3)cc2F)CC1 (stereo not drawn)", "unit.of.measure": "%", "viability at 72 h, 1.25 µM": 93.3}
{"compound": "CC1(C)CCN(Cc2cc(F)c(N3CC(=O)NC4(CCN(c5cc(NCc6cccc(CNC(=O)CCCCCNc7cccc8c7C(=O)N(C7CCC(=O)NC7=O)C8=O)c6)ncn5)CC4)C3)cc2F)CC1 (stereo not drawn)", "unit.of.measure": "%", "viability at 72 h, 1.25 µM": 94.8}
{"compound": "CC1(C)CCN(Cc2cc(F)c(N3CC(=O)NC4(CCN(c5cc(NCc6cccc(CNC(=O)CCCNc7cccc8c7C(=O)N(C7CCC(=O)NC7=O)C8=O)c6)ncn5)CC4)C3)cc2F)CC1 (stereo not drawn)", "unit.of.measure": "%", "viability at 72 h, 1.25 µM": 97.5}
{"compound": "CC1(C)CCN(Cc2cc(F)c(N3CC(=O)NC4(CCN(c5cc(NCCN6CCN(c7cccc8c7C(=O)N(C7CCC(=O)NC7=O)C8=O)CC6)ncn5)CC4)C3)cc2F)CC1 (stereo not drawn)", "unit.of.measure": "%", "viability at 72 h, 1.25 µM": 106}
{"compound": "CC1(C)CCN(Cc2cc(F)c(N3CC(=O)NC4(CCN(c5cc(NCc6ccc(N7CCN(c8cccc9c8C(=O)N(C8CCC(=O)NC8=O)C9=O)CC7)cc6)ncn5)CC4)C3)cc2F)CC1 (stereo not drawn)", "unit.of.measure": "%", "viability at 72 h, 1.25 µM": 97.3}

Here's the next entry for you.
// viability at 72 h, 1.25 µM value for CC1(C)CCN(Cc2cc(F)c(N3CC(=O)NC4(CCN(c5cc(NCc6cccc(CNC(=O)CCCCCCCCCCNc7cccc8c7CN(C7CCC(=O)NC7=O)C8=O)c6)ncn5)CC4)C3)cc2F)CC1 (stereo not drawn) : 109
